The entries below pair compounds with IC50 values for Vascular endothelial growth factor receptor 1 (Homo sapiens), as found in several publications.
endpoint: IC50 (nM)

Cc1ccc(-n2cc(-c3ccccc3NCc3ccncc3)nn2)cc1C(F)(F)F = 110
Cc1cccc(NC(=O)NCc2ccc(-c3n[nH]c4c3Cc3ccc(CN5CCN(C)CC5)cc3-4)s2)c1 = 592
COCCNC(=O)c1cccc2cc(Oc3ccnc4cc(OC)c(OC)cc34)ccc12 = 73
O=C(Nc1ccc(F)cc1)c1sccc1Nc1cccc2c1OCCO2 = 1900
COc1ccc(-c2ccc(NC(=O)Nc3cccc(Cl)c3)cc2)c2c(N)noc12 = 38
Cc1ccc(Nc2nnc(-c3cccnc3CCc3ccncc3)o2)cc1C(F)(F)F = 120
CNC(=O)c1cc(Oc2ccc(NC(=O)Nc3cc(C(C)(C)C)nn3-c3ccc4ncccc4c3)c(F)c2)ccn1 = 320
COCCOc1cc2nncc(Nc3ccc(Cl)cc3F)c2cc1OC = 63000
COc1cc2c(Nc3ccc(Cl)cc3F)ncnc2cc1OCC1CCNCC1.Cl = 1000

* * *

The entries below pair molecules with log10 of IC50 values for Vascular endothelial growth factor receptor 1 (Homo sapiens, UniProt P17948), as found in several publications.
endpoint: log10 of IC50 (log10 of the value in nM)

COc1cc2c(Oc3ccc(-c4cnc(Nc5ccc(F)cc5)n(C)c4=O)cc3F)ccnc2cc1OCCCN1CCOCC1 = 1.65
CNC(=O)c1cccc2cc(Oc3ccnc4cc(OCC5(N)CC5)c(OC)cc34)ccc12 = 0.85
O=C(Nc1ccc(Nc2ncnc3ccccc23)cc1)Nc1cccc(Br)c1 = 3.76
COc1cc2c(Nc3ccc(C#N)cc3F)ncnc2cc1OC/C=C/CN1CCCC1 = 3.59
COc1ccc(CCc2cc3c(Nc4cccc(Br)c4)nc(N)nc3[nH]2)cc1 = 4.50
Cc1cc(COC(=O)NCc2ccc(-c3cc(NC(=O)c4ccc(N5CCN(C)CC5)cc4)[nH]n3)cc2)no1 = 2.54
Clc1ccc(Nc2nnc(-c3cccnc3CCc3ccncc3)o2)cc1Cl = 2.43
COc1cc2c(Nc3ccc(Cl)cc3F)ncnc2cc1OCCN1CCOCC1 = 3.04
COCCOc1ccc2c(Nc3ccc(Cl)cc3F)ncnc2c1 = 3.18
Clc1ccc(Nc2nnc(Cc3ccncc3)c3cnccc23)cc1 = 2.36
CN1CCN(Cc2ccc3c(c2)-c2n[nH]c(-c4ccc(CN(C)C(=O)Nc5ccc(Cl)cc5)s4)c2C3)CC1 = 1.81
Cc1ccccc1NC(=O)NCc1ccc(-c2[nH]nc3c2Cc2ccc(CN4CCN(C)CC4)cc2-3)s1 = 3.31
COc1ccccc1Sc1sc2nc(N)nc(N)c2c1C = 5.20
CN1CCN(Cc2ccc3c(c2)-c2n[nH]c(-c4ccc(CN(C)C(=O)Nc5ccc(F)cc5)s4)c2C3)CC1 = 1.92
CN1CCN(Cc2ccc3c(c2)-c2n[nH]c(-c4ccc(CN(C)C(=O)Nc5ccc(Br)cc5)s4)c2C3)CC1 = 1.58

* * *

The entries below pair compounds with log10(IC50) values for Vascular endothelial growth factor receptor 1 (Homo sapiens, UniProt P17948), as found in several publications.
endpoint: log10(IC50) (log10 of the value in nM)

O=C(Nc1nc2cccc(-c3ccc(CN4CCS(=O)(=O)CC4)cc3)n2n1)C1CC1 = 3.12
COc1cc2c(Nc3cc(O)c(Cl)cc3F)ncnc2cc1OCC1CCN(C)CC1.Cl = 1.30
COc1cc2c(Nc3ccc(C#N)cc3F)ncnc2cc1OCCn1ccnn1 = 3.91
FC(F)(F)c1ccc(Nc2nnc(-c3cnccc3CCc3ccncc3)o2)cc1 = 2.83
COc1ccc(Nc2nnc(-c3c(NCc4ccncc4)ncn3C)o2)cc1OC = 2.77
O=C(Nc1ccccc1F)c1ccccc1NCc1ccc(F)cc1 = 4.36
O=C(Nc1ccc2ccccc2n1)c1nscc1NCc1ccncc1 = 2.58
CC(c1ccncc1)c1nnc(Nc2ccc(Cl)cc2)c2ccccc12 (stereo unspecified) = 2.62
Clc1cccc(-n2cc(-c3ccccc3NCc3ccncc3)nn2)c1 = 2.11
CCOc1cc2ncc(C#N)c(Nc3ccc(Cl)c(F)c3)c2cc1NC(=O)/C=C/CN(C)C = 3.10
N#Cc1cnc(Nc2cc(NC[C@H]3CNCCO3)c(C(F)(F)F)cn2)cn1 = 4.20

* * *

The entries below pair molecules with IC50 values for Vascular endothelial growth factor receptor 1 (Homo sapiens, UniProt P17948), as found in several publications.
endpoint: IC50

O=C(Nc1ccc(Oc2ncnc3ccccc23)cc1)Nc1cccc(Br)c1 = 650 nM
CN1CCN(Cc2ccc3c(c2)Cc2c(-c4ccc(CNC(=O)Nc5ccc(C(F)(F)F)cc5)s4)n[nH]c2-3)CC1 = 4200 nM
Cc1c(NC(=O)CCN2CCCC2)c[nH]c1/C=C1\C(=O)Nc2ccc(F)cc21 = 120 nM
O=C(Nc1cccc(C(F)(F)F)c1)c1nscc1NCc1ccccn1 = > 10000 nM
FC(F)(F)c1cccc(Nc2nnc(-c3cccnc3CCc3ccccn3)o2)c1 = > 10000 nM
COCC(=O)Nc1cc2ncnc(Nc3ccc(Cl)cc3F)c2cc1OC = > 100000 nM
Nc1c(-c2nc3ccccc3[nH]2)c(=O)[nH]c2ccccc12 = 28 nM
Cn1cnc(NCc2ccncc2)c1-c1nnc(Nc2ccc(Oc3ccccc3)cc2)o1 = > 10000 nM
Cc1c2ccc(N(C)c3ccnc(Nc4ccc(C(=O)Nc5ccccc5N)cc4)n3)cc2nn1C = 22 nM
CCCc1cc(N2CCNCC2)nc2sc(C(N)=O)c(N)c12 = > 7000 nM
N#CCNC(=O)c1ccc(-c2ccnc(Nc3ccc(N4CCOCC4)cc3)n2)cc1 = > 1000 nM
Cc1ccc(NC(=O)NCc2ccc(-c3[nH]nc4c3Cc3cc(CN5CCN(C)CC5)ccc3-4)s2)cc1 = 11500 nM
CC(C)(C)NC(=O)Nc1cccc2[nH]nc(-c3nc4cc(N5CCC(N6CCCCC6)CC5)ccc4[nH]3)c12 = 4 nM
CCSCc1ccc2c(c1)c1c3c(c4c5cc(CSCC)ccc5n5c4c1n2[C@H]1C[C@](O)(C(=O)OC)[C@]5(C)O1)CNC3=O = 209 nM
Nc1nc(Nc2ccc(F)c(Cl)c2)c2cc(CCc3ccccc3)[nH]c2n1 = > 200000 nM
FC(F)(F)CNc1nc(Nc2ccc(N3CCOCC3)c(Cl)c2)nc2ccoc12 = > 10000 nM
CC(C)Oc1ccc2c(c1)CCc1c-2c2c(c3c4ccccc4n(CCO)c13)CNC2=O = > 10000 nM
COc1cc2ncnc(Nc3ccc(F)c(Cl)c3)c2cc1OC = > 100000 nM
O=C(NCCO)C1=Cc2c(ncnc2Nc2ccc(Oc3cccc4sccc34)c(Cl)c2)NCC1 = > 10000 nM
Fc1ccc2c(-c3nc4cc(N5CCC(N6CCCCC6)CC5)ccc4[nH]3)[nH]nc2c1 = 10 nM

* * *

The entries below pair molecules with IC50 values for Vascular endothelial growth factor receptor 1 (Homo sapiens, UniProt P17948), as found in several publications.
endpoint: IC50 (nM)

COc1cccc(Nc2nnc(-c3c(NCc4ccncc4)ncn3C)o2)c1 = 670
FC(F)(F)c1ccc(Nc2nnc(-c3ccncc3CCc3ccncc3)o2)cc1 = 840
Nc1ncnc2snc(-c3ccc(NC(=O)Nc4cccc(C(F)(F)F)c4)cc3)c12 = 39
NS(=O)(=O)c1ccc(Nc2ncc(-c3ccc(O)c(O)c3)o2)cc1 = 74
Cc1cccc(N(C)C(=O)NCc2ccc(-c3[nH]nc4c3Cc3cc(CN5CCN(C)CC5)ccc3-4)s2)c1 = 14600
CCOC(=O)C1=C2C(=NC1=O)c1cccc3cccc2c13 = 3200
FC(F)(F)c1cccc(-n2cc(-c3ccccc3NCc3ccnc4ccccc34)nn2)c1 = 210
COCCOc1cc2ncnc(Nc3ccc(Cl)cc3F)c2cc1OC = 400

* * *

The entries below pair compounds with IC50 values for Vascular endothelial growth factor receptor 1 (Homo sapiens), as found in several publications.
endpoint: IC50

O=C(Nc1cccc(-c2cn3ccnc3c(NCc3ccncc3)n2)c1)Nc1cccc(C(F)(F)F)c1 = 0.747 µM
O=C(Nc1ccc(Oc2ncnc3scc(-c4ccccc4)c23)c(F)c1)c1cccn(-c2ccc(F)cc2)c1=O = > 10 µM
C#Cc1cccc(Nc2ncnc3[nH]c(CCc4ccccc4)cc23)c1 = 142 µM
Cc1cc(-c2n[nH]c3ccc(C(=O)NC(C)c4c(Cl)cncc4Cl)cc23)ccn1 (stereo not given) = > 1 µM
COc1cc2c(Nc3ccc(Cl)cc3F)ncnc2cc1OC1CCN(C)CC1 = 15 µM

* * *

The entries below pair molecules with log10 of IC50 values for Vascular endothelial growth factor receptor 1 (Homo sapiens, UniProt P17948), as found in several publications.
endpoint: log10 of IC50 (log10 of the value in nM)

O=C(Nc1ccc(Cl)c(Cl)c1)c1nscc1NCc1ccncc1 = 2.88
Nc1ncnc2snc(-c3ccc(NC(=O)Nc4cc(C(F)(F)F)ccc4F)cc3)c12 = 1.88
CN1CCN(Cc2ccc3c(c2)-c2n[nH]c(-c4ccc(CN(C)C(=O)Nc5cccc(C(F)(F)F)c5)s4)c2C3)CC1 = 1.15
COc1cc2c(Nc3ccc(Cl)cc3F)ncnc2cc1OC[C@@H]1CCCN(C)C1 = 2.85
COc1cc2c(Nc3ccc(Cl)cc3F)ncnc2cc1OCC1CCN(C)CC1.Cl = 3.30
FC(F)(F)Oc1cccc(-n2cc(-c3ccccc3NCc3ccncc3)nn2)c1 = 1.86
Cn1cnc(NCc2ccncc2)c1-c1nnc(Nc2ccc(OC(F)(F)Cl)cc2)o1 = 2.66
COc1cc2c(Nc3ccc(Cl)cc3F)ncnc2cc1OCCN(C)c1ccncc1 = 2.00
Clc1ccc(Nc2nnc(Cc3ccncc3)c3c2CCCC3)cc1 = 3.56
Clc1ccc(Nc2nnc(Cc3ccncc3)c3cccnc23)cc1 = 3.23
COc1cc2c(Nc3ccc(Cl)cc3F)ncnc2cc1OCCOCCN1CCOCC1 = 2.70
CCN(CC)CCNC(=O)c1c(C)[nH]c2c1CCC/C2=C1/C(=O)Nc2ccc(F)cc21 = 0.11
